- ASSAYED_SYSTEM: NL20 human bronchial epithelial cells expressing human Z-AAT (Homo sapiens, UniProt P01009, E366K)
- Sequence (P01009 25-418 E366K): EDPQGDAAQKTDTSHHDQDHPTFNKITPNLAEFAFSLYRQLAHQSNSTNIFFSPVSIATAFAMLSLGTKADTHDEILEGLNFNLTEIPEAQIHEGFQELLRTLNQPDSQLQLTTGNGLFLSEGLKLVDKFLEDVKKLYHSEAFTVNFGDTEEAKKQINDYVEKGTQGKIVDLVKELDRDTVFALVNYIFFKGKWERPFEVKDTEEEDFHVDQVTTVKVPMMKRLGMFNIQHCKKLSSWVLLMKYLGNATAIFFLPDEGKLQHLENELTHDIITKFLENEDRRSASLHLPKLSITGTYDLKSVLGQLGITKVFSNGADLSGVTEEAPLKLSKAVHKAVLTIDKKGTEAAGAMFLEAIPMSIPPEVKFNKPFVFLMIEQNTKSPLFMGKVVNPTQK
- TEST_METHOD_NOTES: AAT Function Assay (MSD Assay NL20-SI Cell Line)
- TEST_PARAMETERS: read-out: NL20 Functional EC50
pEC50: −log10 of the molar value.
OBSERVABLE: pEC50

Identify measured pEC50 corresponding to Cc1cc(-c2c(C(C)CO)c(N[C@@H](C)C(=O)O)nc3cc(O)ccc23)ccc1F (single isomer, unassigned) [Compound 306]
< 5.52

Identify measured pEC50 corresponding to O=C(NCC(O)CO)c1nc(C2CCOCC2)c(-c2ccc(F)cc2)c2ccc(O)cc12 (stereo not shown) [Compound 151]
< 5.52

Identify measured pEC50 corresponding to Cc1cc(-c2c(C3CCOCC3)c(N3CC(C(=O)O)C3)nc3cc(O)ccc23)ccc1F [Compound 321]
< 5.52

Identify measured pEC50 corresponding to COCC(C)(C)c1nc(O[C@H]2C[C@H](C(=O)O)C2)c2cc(O)ccc2c1-c1ccc(F)cc1 [Compound 4]
> 5.92

Identify measured pEC50 corresponding to CC(C)c1c(N[C@@H](C)C(=O)O)nc2cc(O)ccc2c1-c1ccc(F)cc1 [Compound 246]
> 5.92

Identify measured pEC50 corresponding to Cc1cc(-c2c(C3CCOCC3)nc(OC3CCN(C(=O)CO)C3)c3cc(O)ccc23)ccn1 (stereo not shown) [Compound 214]
< 5.52

Identify measured pEC50 corresponding to COCC(C)c1c(C[C@H](C)C(=O)O)nc2cc(O)ccc2c1-c1ccc(F)cc1 (stereo partly shown) [Compound 294]
< 5.52
